Target: Full-length glucokinase (beta cell isoform) (Homo sapiens, UniProt P35557)
Construct: Full-length glucokinase (beta cell isoform) was His-tagged at N-terminus; His tag (N); made in house
Sequence (P35557 whole entry, species assumed, canonical isoform): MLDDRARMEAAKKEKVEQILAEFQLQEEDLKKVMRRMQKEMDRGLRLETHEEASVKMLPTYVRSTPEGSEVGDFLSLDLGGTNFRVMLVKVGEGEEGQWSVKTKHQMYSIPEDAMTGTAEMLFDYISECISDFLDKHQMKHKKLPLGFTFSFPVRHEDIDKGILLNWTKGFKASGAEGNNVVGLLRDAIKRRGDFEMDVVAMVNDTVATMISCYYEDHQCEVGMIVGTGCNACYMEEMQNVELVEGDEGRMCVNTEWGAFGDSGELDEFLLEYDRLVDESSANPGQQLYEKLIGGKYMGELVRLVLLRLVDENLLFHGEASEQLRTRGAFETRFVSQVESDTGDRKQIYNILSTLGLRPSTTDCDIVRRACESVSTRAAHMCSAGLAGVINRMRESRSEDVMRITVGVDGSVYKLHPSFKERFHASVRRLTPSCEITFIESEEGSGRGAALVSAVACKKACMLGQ
Assay: Glucokinase biochemical assay (PK/LDH-coupled, NADH depletion at 340 nm): % activation, EC50, % max activation
Conditions: 10 uM compound; 5 mM glucose; % Activation=(Va/Vo−1)×100; read-out: % Activation at 10 uM
Quantity Measured: activation at 10 µM (%)
Answers are plain numbers, in %.

Example entries and their recorded answers appear below.
Asked: Query: activation at 10 µM; subject: Cc1nc2cc(C(=O)Nc3ccn(C)n3)cc(Oc3ccc(S(C)(=O)=O)cc3)c2o1
Given back: 48.2

Asked: Query: activation at 10 µM; subject: Cc1cc2c(Oc3ccc(S(=O)(=O)N4CCC4)cc3)cc(C(=O)Nc3cnc(N(C)C)cn3)cc2o1
Given back: 106

Asked: Query: activation at 10 µM; subject: Cn1ccc(NC(=O)c2cc(OCc3cc(O)nc(-c4cnccn4)n3)c3c(c2)OC(C)(C)C3)n1
Given back: 38.2

Asked: Query: activation at 10 µM; subject: Cn1ccc(NC(=O)c2cc(Oc3ccc(-c4ncon4)c(F)c3)c3c(c2)OC(C)(C)C3)n1
Given back: 248

Asked: Query: activation at 10 µM; subject: COC(C)CCOc1cc(C(=O)Nc2ccn(C)n2)cc2c1CC(C)(C)O2 (centres unmarked)
Given back: 94.7

Asked: Query: activation at 10 µM; subject: CC(C)Oc1cc(C(=O)Nc2ccn(C)n2)cc2c1CC(COc1ccccc1)O2 (centres unmarked)
Given back: 12

Would you mind listing activation at 10 µM for each of the following compounds?
1. Cc1ccc(NC(=O)c2cc(Oc3ccc(S(C)(=O)=O)cc3)cc3c2CC(C)O3)nc1 (centres unmarked)
2. CCS(=O)(=O)c1ccc(Oc2cc(C(=O)Nc3ccn(C)n3)cc3c2CC(C)(C)O3)cc1F

Given back:
1: 113; 2: 237

Origin of the recorded values: patent US8119624B2
